method.notes: in vivo
condition.label: female, Swiss-Webster, mouse, iv
outcome.measure: LD50 at 14 day (mg/kg)
One number for each entry, in mg/kg.

Q: Consider the molecule CCCCCCCC(CC(=O)O)OC(=O)CC(CCCCCCC)OC1OC(C)C(O)C(O)C1OC1OC(C)C(O)C(O)C1O (stereo not shown) . State its measured LD50 at 14 day.
A: 135

----------
method.notes: in vivo
condition.label: female, Swiss-Webster, mouse, iv
outcome.measure: MTD at 14 day (mg/kg)
Numbers only, in mg/kg.

Q: Entry CCCCCCCC(CC(=O)O)OC(=O)CC(CCCCCCC)OC1OC(C)C(O)C(O)C1OC1OC(C)C(O)C(O)C1O (stereo not shown) [Di-rhamnolipid W3CTS] needs its MTD at 14 day filled in; supply it.
A: 120

----------
method.notes: Neonatal human fibroblast cell culture (proliferation, viability, apoptosis)
Assay type: cell-based
condition.label: human, neonatal human fibroblasts; 100 μg/ml; presence of serum; read-out: inhibition of viability of fibroblasts
outcome.measure: cytotoxicity at 100 μg/ml (%)
Give bare numbers, in %.

Q: Could you please provide reported cytotoxicity at 100 μg/ml for CCCCCCCC(CC(=O)O)OC(=O)CC(CCCCCCC)OC1OC(C)C(O)C(O)C1OC1OC(C)C(O)C(O)C1O (stereo not shown) ? Thanks!
A: 28

Recorded values, source patent US20110123623A1.
